Molecular target: α-Glucosidase from Bacillus stearothermophilus (Geobacillus stearothermophilus, UniProt A0ACH1E9U3)
Sequence (A0ACH1E9U3 entry or part of it): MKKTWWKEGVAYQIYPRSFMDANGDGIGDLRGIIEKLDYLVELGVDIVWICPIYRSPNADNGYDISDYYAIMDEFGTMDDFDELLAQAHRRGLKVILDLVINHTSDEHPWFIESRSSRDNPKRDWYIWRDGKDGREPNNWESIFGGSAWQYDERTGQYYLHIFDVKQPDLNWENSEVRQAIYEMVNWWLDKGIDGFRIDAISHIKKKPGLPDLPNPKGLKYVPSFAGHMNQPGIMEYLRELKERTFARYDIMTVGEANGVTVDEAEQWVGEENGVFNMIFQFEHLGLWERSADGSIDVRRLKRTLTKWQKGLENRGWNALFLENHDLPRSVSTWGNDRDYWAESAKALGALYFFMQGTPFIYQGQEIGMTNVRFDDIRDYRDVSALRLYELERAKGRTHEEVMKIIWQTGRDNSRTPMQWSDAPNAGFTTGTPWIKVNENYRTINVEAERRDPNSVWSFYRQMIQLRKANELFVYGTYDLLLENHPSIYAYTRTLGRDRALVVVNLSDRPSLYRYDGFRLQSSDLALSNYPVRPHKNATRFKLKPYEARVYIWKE
Test: Lineweaver–Burk plot analysis of inhibition kinetics of α-glucosidase
Type: biochemical
Settings: read-out: inhibition constant (Ki); from Vmax at 12.5 and 50.0 mg/L (compound 5), 400 and 800 mg/L (compounds 3 and 4)

[
  {
    "COMPOUND": "CC[C@H](CC[C@@H](C)[C@H]1CC[C@H]2[C@@H]3CC=C4C[C@@H](O)CC[C@]4(C)[C@H]3CC[C@]12C)C(C)C [Compound 3, β-Sitosterol]",
    "Ki, µM": 48.4
  }
]
